# credit: patent US10618964B2

# subject_of_test: native soluble IL-6R in human plasma (human, UniProt P08887)
# procedure_details: plasma potency ELISA, purified Nanobody; competitor IL-6; human plasma
metric: IC50 (nM)
The reply should be a number in nM, with the unit left off.

In plain terms, IL6RPMP107A9 (VHH) VHH: EVQLVESGGGLVQAGGSLRLSCAASGGIFSDMFMGWFRQAPGKSRESVARISPSGNTFYQDSVRGRFTISTDNAKNTVYLQMNNLKPEDTAVYYCAANVGVTGSYEYWGQGTQVTVSS has a documented IC50 of 3.5

Consider IL6RPMP104B8 (VHH) VHH: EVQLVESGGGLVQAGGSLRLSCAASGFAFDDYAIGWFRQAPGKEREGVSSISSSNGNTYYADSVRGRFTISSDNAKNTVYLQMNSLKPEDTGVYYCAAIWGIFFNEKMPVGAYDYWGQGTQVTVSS . Its measured IC50 is 7.8

Reported IC50 ( IL6RPMP103H9 (VHH) VHH: EVQLVESGGGLVQPGGSLRLSCAASKSIFDINAMYWHRQAPGKQRESVASITSGGMRNYADSVKDRFTISKDNAKNTVYLQMNGLKPDDTAVYYCGLGRYEGGVWRDYWGQGTQVTVSS ) = 37.9

The binder listed as IL6RPMP103C4 (VHH) VHH: EVQLVESGGGLVEAGGSLRLSCAAAGRTLSSYSMAWFRQAPGKEREFVAIIRGNPSRTYHSDSVKGRFTASRDNAKNTVYLQMNRLEPEDTAVYYCAADPPPFASDYSAPQSYDYWGQGTQVTVSS shows IC50 equal to 1.73

For record IL6RPMP107A1 (VHH) VHH: EVQLVESGGGLVQAGGSLNLSCNASGDIGSINAMGWYRQAPGQQREWVAVITDTDSTIYPDSVKGRFAISRDGAKNTVHLRMSSLKPEDTAVYYCNAYQAGWGDYWGQGTQVTVSS the listed IC50 is 0.38

Per the record, IL6RPMP108E1 (VHH) VHH: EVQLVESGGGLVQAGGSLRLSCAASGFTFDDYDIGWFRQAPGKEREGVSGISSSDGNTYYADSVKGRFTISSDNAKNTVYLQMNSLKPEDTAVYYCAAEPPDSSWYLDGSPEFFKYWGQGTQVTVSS has IC50 of 0.15

Item: IL6RPMP120G6 (VHH) VHH: EVQLVESGGDLVQTGGSLRLSCAASGITVSDRAMGWYRQAPGKQREMVAGVSRGGMTSYADSVKGRLTISRDNAKNSVYLQMNSLNPEDTAVYYCSAYYRYGSSVPQYWGQGTQVTVSS | IC50: 1.12

Entry IL6RPMP120A5 (VHH) VHH: EVQLVESGGGLVQAGGSLSLSCATSGRTISDDTMAWFRQAPGKEREFVAIITFNGARTHYSDSVRDRFTISRDNAKNTVYLQMNSLKSEDTAVYYCAASTKYYSSTYNYIHPAFYDIWGQGTQVTVSS — recorded IC50 = 0.47

// sample IL6RPMP103C7 (VHH) VHH: EVQLVESGGGLVQAGGSLSLSCATSGRTISDDTMAWFRQAPGKEREFVATITFSGARTHYSDSVRDRFTISRDNAKNTVYLQMDSLKSEDTAVYYCAASTKYYSSTYNYIHPAFYDIWGQGTQVTVSS , its IC50 was 6.9

IL6RPMP105E1 (VHH) VHH: EVQLVESGGGLVQAGGSLRLSCAASGSIFSIKAMGWYRQAPGKQRELVARITSGGSTYYADSVKGRFTISRDNAKNTVYLQMNSLKPEDTAVFYCNAIVTDSDYDLGNDYWGQGTQVTVSS has a reported IC50 of 0.58
